Target: GluN2B glutamate receptors (Homo sapiens (Human), UniProt Q05586+Q13224)
Sequence (Q13224 27-1484, other chains not shown): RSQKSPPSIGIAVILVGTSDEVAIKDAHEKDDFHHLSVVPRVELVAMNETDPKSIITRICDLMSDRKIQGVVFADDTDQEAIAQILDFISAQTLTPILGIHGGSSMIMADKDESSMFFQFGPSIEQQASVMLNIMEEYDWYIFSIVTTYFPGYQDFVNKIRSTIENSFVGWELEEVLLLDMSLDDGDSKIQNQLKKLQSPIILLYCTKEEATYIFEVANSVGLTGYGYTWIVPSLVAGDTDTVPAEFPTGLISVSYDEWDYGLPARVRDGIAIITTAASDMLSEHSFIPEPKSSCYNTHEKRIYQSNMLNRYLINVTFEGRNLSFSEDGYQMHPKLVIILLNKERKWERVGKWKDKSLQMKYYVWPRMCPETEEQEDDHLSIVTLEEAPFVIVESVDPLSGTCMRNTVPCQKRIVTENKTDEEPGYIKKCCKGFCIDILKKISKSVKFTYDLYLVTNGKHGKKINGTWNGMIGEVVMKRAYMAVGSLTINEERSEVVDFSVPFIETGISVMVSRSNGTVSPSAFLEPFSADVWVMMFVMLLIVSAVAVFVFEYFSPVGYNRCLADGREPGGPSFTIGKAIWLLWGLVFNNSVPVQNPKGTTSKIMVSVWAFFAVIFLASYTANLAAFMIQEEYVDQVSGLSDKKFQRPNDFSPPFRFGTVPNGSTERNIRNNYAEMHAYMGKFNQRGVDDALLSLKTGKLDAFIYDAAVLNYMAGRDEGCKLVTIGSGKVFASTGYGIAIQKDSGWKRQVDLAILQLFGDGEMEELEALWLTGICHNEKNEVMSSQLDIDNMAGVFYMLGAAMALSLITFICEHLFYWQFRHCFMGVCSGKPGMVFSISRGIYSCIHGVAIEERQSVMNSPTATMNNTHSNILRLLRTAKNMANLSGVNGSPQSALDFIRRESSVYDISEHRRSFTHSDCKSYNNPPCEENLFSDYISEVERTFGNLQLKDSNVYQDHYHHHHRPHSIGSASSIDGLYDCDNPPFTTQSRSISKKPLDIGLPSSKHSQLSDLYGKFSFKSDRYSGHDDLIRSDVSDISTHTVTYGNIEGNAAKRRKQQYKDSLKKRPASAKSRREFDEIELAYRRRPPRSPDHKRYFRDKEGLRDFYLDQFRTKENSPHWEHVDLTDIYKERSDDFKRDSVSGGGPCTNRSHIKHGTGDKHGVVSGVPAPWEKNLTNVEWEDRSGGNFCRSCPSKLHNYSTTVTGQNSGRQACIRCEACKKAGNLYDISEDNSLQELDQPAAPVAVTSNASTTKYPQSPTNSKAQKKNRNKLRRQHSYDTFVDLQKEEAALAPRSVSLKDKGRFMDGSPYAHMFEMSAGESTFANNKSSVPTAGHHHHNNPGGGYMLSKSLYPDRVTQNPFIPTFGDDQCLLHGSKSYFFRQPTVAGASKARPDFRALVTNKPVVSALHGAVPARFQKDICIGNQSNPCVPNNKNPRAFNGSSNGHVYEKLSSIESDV
Assay: Whole-cell patch clamp of mammalian cells (Ionworks Barracuda), positive allosteric modulation, GluN2B
Assay type: cell-based
Conditions: % potentiation of current elicited with EC20 L-glutamate and 30 μM glycine; read-out: Avg Emax 2B (%)
Procedure: The measurements were performed using Ion Works Barracuda platform following this procedure: Electrophysiological Procedures: • a) Intracellular solution (mM): 50 mM CsCl, 90 mM CsF, 2 mM MgCl2, 5 mM EGTA, 10 mM HEPES. Adjust to pH 7.2 with CsOH. • b) Extracellular solution, HB-PS (composition in mM): NaCl, 137; KCl, 1.0; CaCl2), 5; HEPES, 10; Glucose, 10; pH adjusted to 7.4 with NaOH (refrigerated until use). • c) Holding potential: −70 mV, potential during agonist/PAM application: −40 mV. […]
# key: entry, value: Emax
Your answer is read as %, so omit the unit and give the number.

Recorded results for 2 molecules are shown here.
CC[C@]1(O)CC[C@H]2[C@@H](CC[C@@H]3[C@@H]2CC[C@]2(C)[C@@H]([C@H](C)CCCO)CC[C@@H]32)C1 | 59.8
CC[C@]1(O)CC[C@H]2C(=CC[C@@H]3[C@@H]2CC[C@]2(C)[C@@H]([C@H](C)CCCC(O)C(C)(C)C)CC[C@@H]32)C1 (stereo partly drawn) | 168

Note: attention shifts to another entry.
// query Given CC[C@]1(O)CC[C@@]2(C)C(=CC[C@H]3[C@@H]4CC[C@H]([C@H](C)CC[C@H](O)c5ccccc5)[C@@]4(C)CC[C@@H]32)C1 , state its recorded Emax.
// result 97.4

###

Molecular target: GluN2B glutamate receptors (Homo sapiens (Human), UniProt Q05586+Q13224)
Test: Whole-cell patch clamp of mammalian cells (Ionworks Barracuda), positive allosteric modulation, GluN2B
Assay type: cell-based
Settings: co-application with EC20 L-glutamate and 30 μM glycine; 8-point concentration-response; read-out: Avg EC50 2B
# label = yes (1) if EC50 < 400 nM else no (0)

Completed entries (count: 9):
C[C@H](CCC(O)c1cccnc1)[C@H]1CC[C@H]2[C@@H]3CC=C4C[C@@](C)(O)CC[C@]4(C)[C@H]3CC[C@]12C (stereo partly shown) | yes (1)
CC[C@]1(O)CC[C@H]2[C@@H](CC[C@@H]3[C@@H]2CC[C@]2(C)[C@@H]([C@H](C)CCC(C)(C)O)CC[C@@H]32)C1 | yes (1)
C[C@H](CC[C@@H](C)O)[C@H]1CC[C@H]2[C@@H]3CC=C4C[C@](O)(C(F)(F)F)CC[C@]4(C)[C@H]3CC[C@]12C | yes (1)
CC[C@]1(O)CC[C@H]2[C@@H](CC[C@@H]3[C@@H]2CC[C@]2(C)[C@@H]([C@H](C)CC[C@H](O)C(C)C)CC[C@@H]32)C1 | yes (1)
CC[C@]1(O)CC[C@H]2C(=CC[C@@H]3[C@@H]2CC[C@]2(C)[C@@H]([C@H](C)CCC[C@H](O)C(C)C)CC[C@@H]32)C1 | no (0)
CC[C@]1(O)CC[C@H]2C(=CC[C@@H]3[C@@H]2CC[C@]2(C)[C@@H]([C@H](C)CCC[C@](C)(O)C(F)(F)F)CC[C@@H]32)C1 | yes (1)
CC[C@]1(O)CC[C@@]2(C)C(=CC[C@H]3[C@@H]4CC[C@H]([C@H](C)CC[C@H](O)c5cccc(C#N)c5)[C@@]4(C)CC[C@@H]32)C1 | yes (1)
CC[C@]1(O)CC[C@H]2[C@@H](CC[C@@H]3[C@@H]2CC[C@]2(C)[C@@H]([C@H](C)CCC4(O)CCC(C)(C)CC4)CC[C@@H]32)C1 | no (0)
CCC1(C)CCC(O)(CC[C@@H](C)[C@H]2CC[C@H]3[C@@H]4CC[C@H]5C[C@](O)(C(F)(F)F)CC[C@]5(C)[C@H]4CC[C@]23C)CC1 (stereo partly shown) | no (0)

Alright, here's another compound for you.
// query Quick check: EC50 of CC[C@]1(O)CC[C@H]2C(=CC[C@@H]3[C@@H]2CC[C@]2(C)[C@@H]([C@H](C)CCC[C@H](O)C(F)(F)F)CC[C@@H]32)C1 under 400 nM?
// result yes (1)

###

Target: GlunN1/GluN2A glutamate receptors (Homo sapiens (Human), UniProt Q05586+Q12879)
Sequence (Q12879 23-1464, other chains not shown): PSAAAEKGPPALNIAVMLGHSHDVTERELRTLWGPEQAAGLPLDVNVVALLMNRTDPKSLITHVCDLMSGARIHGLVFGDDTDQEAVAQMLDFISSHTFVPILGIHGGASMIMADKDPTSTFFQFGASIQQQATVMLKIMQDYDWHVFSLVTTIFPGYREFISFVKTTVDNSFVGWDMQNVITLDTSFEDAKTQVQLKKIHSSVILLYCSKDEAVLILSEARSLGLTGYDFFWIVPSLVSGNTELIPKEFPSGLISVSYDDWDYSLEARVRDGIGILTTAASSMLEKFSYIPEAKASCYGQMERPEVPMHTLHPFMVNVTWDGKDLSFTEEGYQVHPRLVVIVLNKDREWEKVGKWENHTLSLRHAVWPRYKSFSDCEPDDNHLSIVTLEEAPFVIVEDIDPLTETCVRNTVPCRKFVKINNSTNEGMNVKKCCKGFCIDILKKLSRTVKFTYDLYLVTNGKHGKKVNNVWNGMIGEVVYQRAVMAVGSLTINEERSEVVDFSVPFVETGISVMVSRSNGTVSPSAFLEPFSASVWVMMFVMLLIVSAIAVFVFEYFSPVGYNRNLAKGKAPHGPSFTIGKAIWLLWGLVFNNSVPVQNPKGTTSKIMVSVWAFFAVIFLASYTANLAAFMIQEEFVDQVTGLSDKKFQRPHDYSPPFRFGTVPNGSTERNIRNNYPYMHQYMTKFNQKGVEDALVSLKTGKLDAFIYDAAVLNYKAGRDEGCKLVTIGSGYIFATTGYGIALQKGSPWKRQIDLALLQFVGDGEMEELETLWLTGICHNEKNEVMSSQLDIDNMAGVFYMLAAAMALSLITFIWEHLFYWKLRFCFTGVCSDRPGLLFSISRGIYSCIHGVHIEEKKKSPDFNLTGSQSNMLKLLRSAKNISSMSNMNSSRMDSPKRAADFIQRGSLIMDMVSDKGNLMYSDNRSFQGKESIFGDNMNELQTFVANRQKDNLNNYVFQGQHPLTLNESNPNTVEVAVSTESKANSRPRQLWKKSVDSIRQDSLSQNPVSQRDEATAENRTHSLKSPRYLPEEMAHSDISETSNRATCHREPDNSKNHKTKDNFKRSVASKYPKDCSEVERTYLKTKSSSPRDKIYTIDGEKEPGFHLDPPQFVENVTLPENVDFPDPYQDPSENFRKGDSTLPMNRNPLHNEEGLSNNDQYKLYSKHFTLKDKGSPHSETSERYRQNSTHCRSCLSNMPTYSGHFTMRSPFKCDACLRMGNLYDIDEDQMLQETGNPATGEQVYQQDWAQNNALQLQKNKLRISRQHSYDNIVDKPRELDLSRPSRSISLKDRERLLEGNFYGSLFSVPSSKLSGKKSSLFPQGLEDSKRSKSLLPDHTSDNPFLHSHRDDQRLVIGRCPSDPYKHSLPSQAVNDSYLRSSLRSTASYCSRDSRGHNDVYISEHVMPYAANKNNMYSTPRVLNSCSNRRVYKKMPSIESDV
Experiment: Whole-cell patch clamp of mammalian cells (Ionworks Barracuda), positive allosteric modulation, GluN1/GluN2A
Format: cell-based
pEC50: −log10 of the molar value.
Binary call on pEC50: T from 6 upward, F beneath that.

C[C@H](CC[C@H](O)C(C)(C)C)[C@H]1CC[C@H]2[C@@H]3CC=C4C[C@](O)(C(F)(F)F)CC[C@]4(C)[C@H]3CC[C@]12C [Compound 3507] | T
CC(C)[C@H](O)CC[C@@H](C)[C@H]1CC[C@H]2[C@@H]3CC[C@H]4C[C@](O)(C(F)(F)F)CC[C@]4(C)[C@H]3CC[C@]12C [Compound 2B] | T
COC[C@H]1CC[C@@](O)(CC[C@@H](C)[C@H]2CC[C@H]3[C@@H]4CC[C@H]5C[C@](O)(C(F)(F)F)CC[C@]5(C)[C@H]4CC[C@]23C)CC1 [Compound 4656] | F
CC[C@H](O)CC[C@@H](C)[C@H]1CC[C@H]2[C@@H]3CC=C4C[C@](O)(CC)CC[C@@H]4[C@H]3CC[C@]12C [Compound 8585] | T

// query API: above_or_equal(metric=pEC50, cutoff=6) for item CC[C@]1(O)CC[C@H]2C(=CC[C@@H]3[C@@H]2CC[C@]2(C)[C@@H]([C@H](C)CCC[C@@H](O)C(C)(C)C)CC[C@@H]32)C1 [Compound 10042]
// result F

// query API: above_or_equal(metric=pEC50, cutoff=6) for item CC[C@@H](O)CCC[C@@H](C)[C@H]1CC[C@H]2[C@@H]3CC=C4C[C@](O)(CC)CC[C@@H]4[C@H]3CC[C@]12C [Compound 10841]
// result F

// query API: above_or_equal(metric=pEC50, cutoff=6) for item CC[C@]1(O)CC[C@@]2(C)C(=CC[C@H]3[C@@H]4CC[C@H]([C@H](C)CC[C@H](O)Cc5ccccc5)[C@@]4(C)CC[C@@H]32)C1 [Compound 6051]
// result T

// query API: above_or_equal(metric=pEC50, cutoff=6) for item C[C@H](CCC1(O)CCCCC1)[C@H]1CC[C@H]2[C@@H]3CC[C@H]4C[C@](O)(C(F)(F)F)CC[C@]4(C)[C@H]3CC[C@]12C [Compound 4023]
// result T

// query API: above_or_equal(metric=pEC50, cutoff=6) for item CC[C@]1(O)CC[C@H]2[C@@H](CC[C@@H]3[C@@H]2CC[C@]2(C)[C@@H]([C@H](C)CCC4(O)CC4)CC[C@@H]32)C1 [Compound 8127]
// result T

###

Biological target: GlunN1/GluN2A glutamate receptors (Homo sapiens (Human), UniProt Q05586+Q12879)
Assay: Whole-cell patch clamp of mammalian cells (Ionworks Barracuda), positive allosteric modulation, GluN1/GluN2A
Type: cell-based
Details: HEK293 cells; % potentiation of current elicited with EC20 L-glutamate and 30 μM glycine; read-out: Avg Emax 2A (%)
// thresholds for Emax classes: low bracket (below 60%), middle bracket (60% to below 200%), high bracket (200% or more)

Completed entries (count: 5):
CC[C@]1(O)CC[C@H]2C(=CC[C@@H]3[C@@H]2CC[C@]2(C)[C@@H]([C@H](C)CCC(C)(C)O)CC[C@@H]32)C1 | middle bracket
CO[C@H]1CC[C@@](O)(CC[C@@H](C)[C@H]2CC[C@H]3[C@@H]4CC[C@H]5C[C@](O)(C(F)(F)F)CC[C@]5(C)[C@H]4CC[C@]23C)CC1 | low bracket
C[C@H](CCC1(O)CCC(C(C)(C)C)CC1)[C@H]1CC[C@H]2[C@@H]3CC[C@H]4C[C@](O)(C(F)(F)F)CC[C@]4(C)[C@H]3CC[C@]12C (stereo partly shown) | low bracket
CC[C@]1(O)CC[C@@]2(C)C(=CC[C@H]3[C@@H]4CC[C@H]([C@H](C)CC[C@@H](O)Cc5ccccc5)[C@@]4(C)CC[C@@H]32)C1 | middle bracket
CC[C@]1(O)CC[C@@]2(C)C(=CC[C@H]3[C@@H]4CC[C@H]([C@H](C)CC[C@H](O)c5ccccn5)[C@@]4(C)CC[C@@H]32)C1 | middle bracket

Alright, here's another compound for you.
// query Record C[C@H](CCC(O)C(F)(F)F)[C@H]1CC[C@H]2[C@@H]3CC[C@H]4C[C@](O)(C(F)(F)F)CC[C@]4(C)[C@H]3CC[C@]12C (stereo partly shown) — which class?
// result high bracket

Hello, the source for this data is patent US11149054B2, in case you need it.
